target_system: recombinant His6-TEV-FIP200-CLAW domain
experiment_description: fluorescence polarisation
Where no end group is shown, it is not given here.
reported_metric: pIC50
Note on pIC50: it is the negative log10 of concentration, concentration in mol/L.

Query: State its pIC50: SSGTSSEFEVVTPEE (also: phosphoserine pS123, place not mapped) [unlabeled TNIP1 pS123 peptide]
Reply: 4.15
